# ASSAY_INFO: Binding affinity to 5'-biotin labeled GCGAGGCAGACACGCTTTTGCGTGTCTGCCTCGC-3' DNA (unknown origin) by SPR analysis
MEASURE: Kd
A complete answer gives the number and then names the unit.

COMPOUND_STRING | MEASURE | VAL
CC(=O)Nc1cn(C)c(C(=O)Nc2cn(C)c(C(=O)Nc3cc(C(=O)NCCC(=O)Nc4cn(C)c(C(=O)Nc5cc(C(=O)Nc6cc(C(=O)NCCCC(=O)Nc7cn(C)c(C(=O)Nc8cc(C(=O)NCCOCCOCC(=O)Nc9cn(C)c(C(=O)Nc%10cc(C(=O)Nc%11cc(C(=O)NCCC(=O)NCCCN(C)CCCN)n(C)c%11)n(C)c%10)n9)n(C)c8)n7)n(C)c6)n(C)c5)n4)n(C)c3)n2)n1 | Kd | 250 nM

Count: 4. Required value per item: Kd.
1. CC(=O)Nc1cn(C)c(C(=O)Nc2cn(C)c(C(=O)NCCC(=O)NCCC(=O)Nc3cn(C)c(C(=O)Nc4cc(C(=O)Nc5cc(C(=O)NCCCC(=O)Nc6cn(C)c(C(=O)Nc7cc(C(=O)Nc8cc(C(=O)NCCC(=O)Nc9cn(C)c(C(=O)Nc%10cc(C(=O)Nc%11cc(C(=O)NCCC(=O)NCCCN(C)CCCN)n(C)c%11)n(C)c%10)n9)n(C)c8)n(C)c7)n6)n(C)c5)n(C)c4)n3)n2)n1
2. CC(=O)Nc1cn(C)c(C(=O)Nc2cn(C)c(C(=O)NCCOCCOCC(=O)Nc3cn(C)c(C(=O)Nc4cc(C(=O)Nc5cc(C(=O)NCCCC(=O)Nc6cn(C)c(C(=O)Nc7cc(C(=O)NCCOCCOCC(=O)Nc8cn(C)c(C(=O)Nc9cc(C(=O)Nc%10cc(C(=O)NCCC(=O)NCCCN(C)CCCN)n(C)c%10)n(C)c9)n8)n(C)c7)n6)n(C)c5)n(C)c4)n3)n2)n1
3. CC(=O)Nc1cn(C)c(C(=O)Nc2cn(C)c(C(=O)NCCOCCOCC(=O)Nc3cn(C)c(C(=O)Nc4cc(C(=O)Nc5cc(C(=O)NCCCC(=O)Nc6cn(C)c(C(=O)Nc7cc(C(=O)Nc8cc(C(=O)NCCC(=O)Nc9cn(C)c(C(=O)Nc%10cc(C(=O)Nc%11cc(C(=O)NCCC(=O)NCCCN(C)CCCN)n(C)c%11)n(C)c%10)n9)n(C)c8)n(C)c7)n6)n(C)c5)n(C)c4)n3)n2)n1
4. CC(=O)Nc1cn(C)c(C(=O)Nc2cn(C)c(C(=O)Nc3cc(C(=O)NCCC(=O)Nc4cn(C)c(C(=O)Nc5cc(C(=O)Nc6cc(C(=O)NCCCC(=O)Nc7cn(C)c(C(=O)Nc8cc(C(=O)Nc9cc(C(=O)NCCC(=O)Nc%10cn(C)c(C(=O)Nc%11cc(C(=O)Nc%12cc(C(=O)NCCC(=O)NCCCN(C)CCCN)n(C)c%12)n(C)c%11)n%10)n(C)c9)n(C)c8)n7)n(C)c6)n(C)c5)n4)n(C)c3)n2)n1

15 nM
16 nM
18 nM
5.9 nM

###

# ASSAY_INFO: Binding affinity to 5'-biotin labeled GCGAGGCAGACACGCTTTTGCGTGTCTGCCTCGC-3' DNA (unknown origin) assessed as dissociation rate by SPR analysis
MEASURE: Kd (×10⁻³ /s)
Give bare numbers, in ×10⁻³ /s.

Complete the entry with Kd for CC(=O)Nc1cn(C)c(C(=O)Nc2cn(C)c(C(=O)NCCOCCOCC(=O)Nc3cn(C)c(C(=O)Nc4cc(C(=O)Nc5cc(C(=O)NCCCC(=O)Nc6cn(C)c(C(=O)Nc7cc(C(=O)Nc8cc(C(=O)NCCC(=O)Nc9cn(C)c(C(=O)Nc%10cc(C(=O)Nc%11cc(C(=O)NCCC(=O)NCCCN(C)CCCN)n(C)c%11)n(C)c%10)n9)n(C)c8)n(C)c7)n6)n(C)c5)n(C)c4)n3)n2)n1
1.8
